As shown below, each of these compounds has a reported half-life value.
test: Plasma pharmacokinetics in SD rats after single intragastric administration (Example 7); assay type: in vivo; settings: male, SD, rat, plasma, po, 1 mg/kg, intragastric 1 mg/kg, Mean ± SD, non-compartmental model
Enter your answer as a number in h; do not include the unit.

CN(C)C(=O)N[C@H]1CC[C@H](CCN2CCN(c3cccc4ccsc34)CC2)CC1.O=C(O)/C=C\C(=O)O :: 4.67

Alright, here's another compound for you.
// returns reported half-life for input CN(C)C(=O)N[C@H]1CC[C@H](CCN2CCN(c3cccc4ccsc34)CC2)CC1
4.72

* * *

experiment: Plasma pharmacokinetics in SD rats after single intragastric administration (Example 7); assay type: in vivo; settings: male, SD, rat, plasma, po, 1 mg/kg, intragastric 1 mg/kg, Mean ± SD, non-compartmental model
MEASURED PROPERTY: AUC(0-inf) (µg·h/mL)
Enter your answer as a number in µg·h/mL; do not include the unit.

CN(C)C(=O)N[C@H]1CC[C@H](CCN2CCN(c3cccc4ccsc34)CC2)CC1 [Example 2] :: 0.0991

// returns reported AUC(0-inf) for input CN(C)C(=O)N[C@H]1CC[C@H](CCN2CCN(c3cccc4ccsc34)CC2)CC1.O=C(O)/C=C\C(=O)O [Example 5]
0.125
